Test system: RXF 393
test-summary: NCI tumour cell line growth inhibition, 48 h
The source made the active and inactive calls. Rule as the data show it: active = GI50 up to about 1.1 µM and inactive = higher.
Bench note: report the call from t = active, f = inactive

smiles-representation | class-assignment
C[C@H]1C(=O)C2=C[C@H]1CCC(=O)[C@]1(C)CCCC(C)(C)[C@H]1C[C@H]2O | f
O=C1C=CC2(C=C1)O[C@H](Cc1ccccc1)[C@@H](Cc1ccccc1)O2 | t

How was c1cc(C[S+]2CCCC2)sc1C[S+]1CCCC1 classified in this test? f

Same thing, different compound: COc1ccc(Cn2nc(OCc3ccccn3)c3cc([N+](=O)[O-])ccc32)cc1 f

Same thing, different compound: CCCCCC1=C/C(=C\c2[nH]c(-c3ccc[nH]3)cc2OC)N=C1C t

---

Test system: HOP-92
test-summary: NCI tumour cell line growth inhibition, 48 h
Calls of active or inactive are those of the source. No stated cut-off is given here; in the data, active = GI50 up to about 1.1 µM and inactive = higher.
Bench note: report the call from true for active, false for inactive

molecule | assay-system | class-assignment
c1cc(C[S+]2CCCC2)sc1C[S+]1CCCC1 | HOP-92 | false

Continue with the molecule presented below.
How was CC1(C)[C@H]2CC[C@@]13C(=O)N1C(=O)O[C@@H]([C@H]1Cl)C(Cl)(COCc1ccccc1)C(=O)OCCO[C@H]3C2 (stereo partly specified) classified in this test? false

---

Tested on: DU-145
test-summary: NCI tumour cell line growth inhibition, 48 h
The source made the active and inactive calls. Cut-off read from the data, not from the text of the source: active = GI50 up to about 1.1 µM and inactive = higher.
Bench note: report the call from active, inactive

molecule | class-assignment
CN(C)CCCN1c2ccccc2Sc2cnccc21 | inactive
O=C(CC(C(=O)O)N1CCOCC1)c1ccccc1 (configuration not stated) | inactive
CC[C@@]1(O)C(=O)OCc2c1cc1n(c2=O)Cc2c-1nc1ccccc1c2/C=N\NC(=O)C(N)CO (some centres not stated) | active
C=C1[C@H](OCC(C)C)[C@@H](OC(=O)C(C)CC)[C@@H](O)C(C)(C)/C=C/[C@H](C)C(=O)[C@@]2(O)C[C@H](C)[C@H](O)[C@@H]2[C@H]1OC(=O)C(C)CC (some centres not stated) | inactive
O=C(O)C(F)(F)C(F)(F)C(F)(F)C(F)(F)C(=O)O | inactive
CNC(=S)N/N=C/c1ccc([N+](=O)[O-])s1 | inactive
COc1ccc(/C(C)=N/NC(=S)N(C)C)c(O)c1 | inactive
S=C(/C=C1\SC(=N\c2ccccc2)/C(=N/c2ccccc2)N1c1ccccc1)Nc1ccccc1 | inactive
O=C(/C=C/c1cccc(Oc2ccccc2)c1)NCc1ccc(C(=O)NCCc2ccccc2)cc1 | inactive
NS(=O)(=O)c1ccc(NC(=O)Nc2cccc3ccccc23)cc1 | inactive

How was O=C1CSC2(CC(/C=C/c3cccs3)=NN2c2cccc(S(=O)(=O)O)c2)N1c1nc2ccccc2s1 (configuration not stated) classified in this test? inactive

Same thing, different molecule: Nc1ccn(C2CCC(CO)O2)c(=S)n1 (configuration not stated) inactive

Same thing, different molecule: Cn1c2ccccc2c(=NNc2ccc(S(N)(=O)=O)cc2)c2ccccc21 inactive

Same thing, different molecule: COc1ccc(OC)c(C(=O)c2cccc(C(=O)c3cc(OC)ccc3OC)n2)c1 inactive

Same thing, different molecule: O=C(O)c1nnsc1-c1csnn1 inactive

---

# GI50 per entry
Tested on: M14
test-summary: NCI tumour cell line growth inhibition, 48 h
Calls of active or inactive are those of the source. Cut-off read from the data, not from the text of the source: active = GI50 up to about 1.1 µM and inactive = higher.

Sample records with GI50:
molecule | GI50
N#C/C(=C\c1ccc(CP(=O)(O)O)cc1)C(N)=O | > 100 µM (inactive)
O=C(/C=C/c1cccc(Oc2ccccc2)c1)NCc1ccc(C(=O)NCCc2ccccc2)cc1 | > 100 µM (inactive)
COc1ccc(/C(C)=N/NC(=S)N(C)C)c(O)c1 | 2.72 µM (inactive)
Cc1ccc(C(=O)C2=CN=C3C(=O)N(c4ccccc4)N(C)C3(C)C2=N)cc1 (stereo unspecified) | > 100 µM (inactive)
Nc1ccccc1C#CC(=O)c1cccc(C(F)(F)F)c1 | 2.22 µM (inactive)

Query for M14: what GI50 does the record show for CC1(C)CCN2C(=O)C34CCCC3CC21S4 (stereo unspecified) ? > 100 µM (inactive)

Same thing, different molecule: CC(C)(c1ccccc1)c1ccc(OC#N)cc1 > 100 µM (inactive)
